Ref: PubChem BioAssay AID651717

AC40 overview
tested on: mESC Bmi1-luciferase reporter, firefly/renilla ratio, 24 h; experiment: compounds raising Bmi1 reporter signal – mouse embryonic stem cells, luciferase, cherry-pick, esBAF inhibitor project, dose response (AID 651717);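 note: luciferase knocked into Bmi1 locus with EF-1a renilla as cell number control; rising ratio signals esBAF inhibition which derepresses Bmi1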
PARAMETER MEASURED: AC40

{"columns": ["MOLECULE", "MEASURED RESULT"],
 "data": [
  ["COc1ccc(C(O)c2nc(-c3ccc4ccccc4c3)cs2)cc1 (stereo not given)", "13 µM"],
  ["CCn1c(COc2ccc(OC)cc2)nc2ccccc21", "2.81 µM"],
  ["Cn1c(/C=C/c2ccc(Br)cc2)nc2ccccc2c1=O", "4.88 µM"],
  ["CCc1c(C(=O)OCc2ccccc2)[nH]c(C)c1C", "2.03 µM"],
  ["COc1ccc(C(=O)Nc2ccc(C3CC3(Cl)Cl)cc2)cc1 (stereo not given)", "7.09 µM"],
  ["COc1cc2ccccc2cc1C(=O)Nc1ccccc1C", "1.85 µM"],
  ["Nc1nc(SCc2ccccc2)cc(SCc2ccccc2)n1", "4.44 µM"],
  ["CCCCN(Cc1ccccc1)c1ncnc2nc[nH]c12", "10.1 µM"],
  ["O=C(c1cc(-c2ccc(Cl)cc2)on1)N1CCN(c2ccccc2)CC1", "6.4 µM"],
  ["Cc1ccc(C(=O)NCC(=O)Nc2ccc3c(c2)CCC3)cc1", "1.44 µM"]
]}

---

system: mESC Bmi1-luciferase reporter, firefly/renilla ratio, 24 h; assay: compounds raising Bmi1 reporter signal – mouse embryonic stem cells, luciferase, cherry-pick, esBAF inhibitor project, dose response (AID 651717);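 note: luciferase knocked into Bmi1 locus with EF-1a renilla as cell number control; rising ratio signals esBAF inhibition which derepresses Bmi1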
PARAMETER MEASURED: AC40

{"columns": ["COMPOUND", "TARGET UNDER TEST", "PARAMETER MEASURED", "MEASURED RESULT"],
 "data": [
  ["COc1ccc(-c2cc(C(=O)Nc3ccc(NC(C)=O)cc3)[nH]n2)c(C)c1", "mESC Bmi1-luciferase reporter, firefly/renilla ratio, 24 h", "AC40", "1.21 µM"],
  ["CO[C@H]1CN(C)C(=O)c2ccc(NC(=O)Nc3ccc4c(c3)OCO4)cc2OC[C@@H](C)NC[C@H]1C", "mESC Bmi1-luciferase reporter, firefly/renilla ratio, 24 h", "AC40", "3.55 µM"],
  ["O=C(COC(=O)c1cc2ccccc2oc1=O)Nc1cccc(S(=O)(=O)N2CCCCCC2)c1", "mESC Bmi1-luciferase reporter, firefly/renilla ratio, 24 h", "AC40", "12.7 µM"],
  ["FC(F)Oc1ccccc1/C=N/Nc1nc2ccccc2o1", "mESC Bmi1-luciferase reporter, firefly/renilla ratio, 24 h", "AC40", "3.81 µM"],
  ["Cc1cc(-c2nnc(-c3cccc(C(F)(F)F)c3)o2)no1", "mESC Bmi1-luciferase reporter, firefly/renilla ratio, 24 h", "AC40", "6.58 µM"],
  ["CCS(=O)(=O)N1Cc2ccccc2CC1C(=O)Nc1cccc(OC)c1 (centres undefined)", "mESC Bmi1-luciferase reporter, firefly/renilla ratio, 24 h", "AC40", "8.28 µM"],
  ["Cc1cc(Cl)nc(NC(=O)Nc2cccc(Cl)c2)n1", "mESC Bmi1-luciferase reporter, firefly/renilla ratio, 24 h", "AC40", "0.66 µM"],
  ["Clc1ccc(-c2csc(N3CCSCC3)n2)cc1", "mESC Bmi1-luciferase reporter, firefly/renilla ratio, 24 h", "AC40", "5.65 µM"],
  ["OC(c1ccc(F)c(F)c1)c1nc(-c2ccc3ccccc3c2)cs1 (centres undefined)", "mESC Bmi1-luciferase reporter, firefly/renilla ratio, 24 h", "AC40", "20.3 µM"],
  ["COc1ccc(OCc2cc(C(=O)N(C)C(C)c3ccon3)no2)c(Cl)c1 (centres undefined)", "mESC Bmi1-luciferase reporter, firefly/renilla ratio, 24 h", "AC40", "23.4 µM"],
  ["O=C(NNC(=O)c1cccc2ccccc12)c1ccc(Cl)cc1Cl", "mESC Bmi1-luciferase reporter, firefly/renilla ratio, 24 h", "AC40", "12.7 µM"],
  ["CC(=O)Nc1nc(-c2ccc(-c3ccccc3)cc2)cs1", "mESC Bmi1-luciferase reporter, firefly/renilla ratio, 24 h", "AC40", "1.56 µM"],
  ["CC(=O)c1ccc(NC(=O)C2CC(=O)N(Cc3ccccc3)C2)cc1 (centres undefined)", "mESC Bmi1-luciferase reporter, firefly/renilla ratio, 24 h", "AC40", "3.25 µM"],
  ["O=C1C(=Cc2ccccn2)CCc2ccccc21", "mESC Bmi1-luciferase reporter, firefly/renilla ratio, 24 h", "AC40", "20.1 µM"]
]}
